- test: Cytotoxicity MTT assay on RAW 264.7 cells
- Type: cell-based, Murine
- condition-label: mouse, RAW 264.7 macrophage cells, 48 h incubation, read-out: IC50, cytotoxic effect on RAW264.7 cells
Please provide measured IC50 at 48 h for the entries that follow.

For orientation, consider the following solved cases.
compound | measurement
COc1cccc2c1C(=O)c1c(O)c3c(c(O)c1C2=O)C[C@@](O)(C(=O)CO)C[C@@H]3O[C@H]1C[C@H](N)[C@H](O)[C@H](C)O1 [Doxorubicin, doxorubicin, reference compound] | 4.63 µM
CC(C)=CCC/C(C)=C/C[C@]12C[C@@H](CC=C(C)C)C(C)(C)[C@](CC=C(C)C)(C(=O)C(C(=O)c3ccc(O)c(O)c3)=C1O)C2=O | 61.2 µM
CC(C)=CCC/C(C)=C/C[C@]12C[C@@H](CC=C(C)C)C(C)(C)[C@](C/C=C(\C)CCC=C(C)C)(C(=O)C(C(=O)c3ccc(O)c(O)c3)=C1O)C2=O | 64.5 µM
CC(C)=CCCC1(C)C=Cc2c(cc3oc4c(O)ccc(O)c4c(=O)c3c2O)O1 (centres unmarked) | > 100 µM

## Input Consider the compound CC(C)=CCc1c2c(c3oc4c(O)cccc4c(=O)c3c1O)C=CC(C)(C)O2 and give its recorded IC50 at 48 h.
## Output > 100 µM

* * *

Target protein (sequence): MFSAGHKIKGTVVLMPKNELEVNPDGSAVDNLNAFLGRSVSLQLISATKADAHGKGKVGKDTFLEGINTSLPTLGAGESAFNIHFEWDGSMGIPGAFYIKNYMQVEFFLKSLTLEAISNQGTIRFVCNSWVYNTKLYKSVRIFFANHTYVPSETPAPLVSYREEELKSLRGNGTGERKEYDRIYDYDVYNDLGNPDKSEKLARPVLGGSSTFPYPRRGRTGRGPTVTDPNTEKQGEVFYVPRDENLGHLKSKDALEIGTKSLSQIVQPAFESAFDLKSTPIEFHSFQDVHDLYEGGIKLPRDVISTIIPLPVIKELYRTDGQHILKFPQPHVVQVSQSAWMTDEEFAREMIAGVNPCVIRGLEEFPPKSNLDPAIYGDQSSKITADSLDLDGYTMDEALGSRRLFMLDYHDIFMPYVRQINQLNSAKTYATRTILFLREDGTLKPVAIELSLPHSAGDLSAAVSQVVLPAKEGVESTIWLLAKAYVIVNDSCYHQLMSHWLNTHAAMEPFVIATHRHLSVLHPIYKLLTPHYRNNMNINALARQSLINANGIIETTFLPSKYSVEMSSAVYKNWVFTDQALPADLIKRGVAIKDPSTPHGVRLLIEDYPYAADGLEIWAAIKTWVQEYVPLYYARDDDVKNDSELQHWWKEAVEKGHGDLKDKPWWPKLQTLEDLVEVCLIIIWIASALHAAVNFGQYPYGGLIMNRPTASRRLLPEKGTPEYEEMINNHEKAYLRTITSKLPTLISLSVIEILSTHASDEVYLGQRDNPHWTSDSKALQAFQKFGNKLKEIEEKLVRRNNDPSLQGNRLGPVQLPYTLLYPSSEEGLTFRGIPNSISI
readout-name: pIC50
Answers are plain numbers, as −log10 of the molar value.

## Input Consider the compound CC(C)=CCC/C(C)=C/C[C@]12C[C@@H](CC=C(C)C)C(C)(C)[C@](C/C=C(\C)CCC=C(C)C)(C(=O)C(C(=O)c3ccc(O)c(O)c3)=C1O)C2=O and give its recorded pIC50.
## Output 4.35

FYI, the data here is from paper PMC11180795.
